Data origin: patent US11266640B2

target: IDO (Homo sapiens, UniProt P14902); construct: endogenous in cells; host or cells: HeLa cells treated with IFNγ; test: Hela cell-based IDO inhibitory activity test (IFNγ added); conditions: Hela cells with IFNγ, 48 hours incubation, OD 480 nm
Sequence (P14902 whole entry): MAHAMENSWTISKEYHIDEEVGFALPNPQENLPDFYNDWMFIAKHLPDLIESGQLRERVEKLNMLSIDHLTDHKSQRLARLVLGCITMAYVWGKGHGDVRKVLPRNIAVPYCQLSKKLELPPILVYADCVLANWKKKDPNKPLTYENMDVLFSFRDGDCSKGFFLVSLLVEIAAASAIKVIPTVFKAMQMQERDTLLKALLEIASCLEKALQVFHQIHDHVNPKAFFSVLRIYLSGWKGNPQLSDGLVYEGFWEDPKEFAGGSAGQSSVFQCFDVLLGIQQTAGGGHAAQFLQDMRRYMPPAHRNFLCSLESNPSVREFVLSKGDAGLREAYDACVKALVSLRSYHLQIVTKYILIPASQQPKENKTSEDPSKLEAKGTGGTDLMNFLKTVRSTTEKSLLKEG
pIC50: −log10 of the molar value.
Quantity Measured: pIC50

// known answers, use as guide
Recorded pIC50 for O=C(Nc1ccc(Cl)cc1)C1CC12CCC(c1ccnc3ccc(F)cc13)CC2 (stereo not shown) [Compound 56] on IDO (Homo sapiens, UniProt P14902) was 7.60 to 8.30

Recorded pIC50 for N#Cc1ccc(NC(=O)C[C@H]2C[C@@H]3C[C@H](c4ccnc5ccc(F)cc45)C[C@@H]3C2)nc1 [Compound 70] on IDO (Homo sapiens, UniProt P14902) was ≥ 8.30

Recorded pIC50 for CC(C(=O)Nc1ccc(Cl)cn1)N1C[C@H]2C[C@@H](c3ccnc4ccc(F)cc34)C[C@H]2C1 (stereo partly shown) [Compound 99] on IDO (Homo sapiens, UniProt P14902) was 7.60 to 8.30

Now turn to the next compound.
Recorded pIC50 for C#Cc1ccc(NC(=O)C[C@@H]2C[C@H]3CC(c4ccnc5ccc(F)cc45)C[C@H]3C2)nc1 (stereo partly shown) [Compound 25] on IDO (Homo sapiens, UniProt P14902) was ≥ 8.30
